target: hCA IX (Homo sapiens); assay: biochemical; settings: SI, hCA IX over hCA I (ratio of Ki)
valueKind: Selectivity analysis hCA I/IX

// known answers, use as guide
molecule: COc1ccc(C=NNC(=O)CSc2nc3ccccc3c(=O)n2CCc2ccc(S(N)(=O)=O)cc2)cc1OC [Compound 12]
observed: 11.98
//
molecule: NS(=O)(=O)c1ccc(CCn2c(SCC(=O)NN=Cc3ccc4c(c3)OCO4)nc3ccccc3c2=O)cc1 [Compound 15]
observed: 41.95

I = COc1ccc(C=NNC(=O)CSc2nc3ccccc3c(=O)n2CCc2ccc(S(N)(=O)=O)cc2)c(OC)c1 [Compound 11]
II = NS(=O)(=O)c1ccc(CCn2c(SCC(=O)NN=Cc3cccc(O)c3)nc3ccccc3c2=O)cc1 [Compound 6]
III = COc1cc(C=NNC(=O)CSc2nc3ccccc3c(=O)n2CCc2ccc(S(N)(=O)=O)cc2)cc(OC)c1OC [Compound 13]
IV = COc1ccc(C=NNC(=O)CSc2nc3ccccc3c(=O)n2CCc2ccc(S(N)(=O)=O)cc2)cc1 [Compound 10]
Input line: Arrange the 4 entries by Selectivity analysis hCA I/IX so the values rise. Would you mind listing the labels in the order asked for?
Output line: IV, III, II, I
(IV: 11.23, III: 16.05, II: 24.60, I: 43.60)

I = COc1ccc(OC)c(C(C)=NNC(=O)CSc2nc3ccccc3c(=O)n2CCc2ccc(S(N)(=O)=O)cc2)c1 [Compound 20]
II = NS(=O)(=O)c1ccc(CCn2c(SCC(=O)NN=Cc3ccc(O)cc3)nc3ccccc3c2=O)cc1 [Compound 7]
III = COc1cc(OC)cc(C(C)=NNC(=O)CSc2nc3ccccc3c(=O)n2CCc2ccc(S(N)(=O)=O)cc2)c1 [Compound 21]
Input line: Endpoint returns the given molecules ordered by ascending Selectivity analysis hCA I/IX. Answer format: list of labels, ordered as asked.
Output line: II, III, I
(II: 10.68, III: 21.95, I: 57.65)

a = COc1ccc(C(C)=NNC(=O)CSc2nc3ccccc3c(=O)n2CCc2ccc(S(N)(=O)=O)cc2)cc1OC [Compound 19]
b = COc1cc(C=NNC(=O)CSc2nc3ccccc3c(=O)n2CCc2ccc(S(N)(=O)=O)cc2)ccc1O [Compound 14]
Input line: Which shows the larger Selectivity analysis hCA I/IX value: a or b ? Answer by stating the label of the chosen item.
Output line: a
(a: 20.46, b: 14.25)

* * *

pKi: −log10 of the molar value.
The following molecules each carry a recorded pKi for UniProt:P00918.
valueKind: pKi

Sample records with pKi:
molecule: COc1cc(C(C)=NNC(=O)CSc2nc3ccccc3c(=O)n2CCc2ccc(S(N)(=O)=O)cc2)cc(OC)c1OC [Compound 22]
pKi: 6.48
--
molecule: COc1cc(OC)cc(C(C)=NNC(=O)CSc2nc3ccccc3c(=O)n2CCc2ccc(S(N)(=O)=O)cc2)c1 [Compound 21]
pKi: 6.88
--
molecule: NS(=O)(=O)c1ccc(CCn2c(SCC(=O)NN=Cc3ccc4c(c3)OCO4)nc3ccccc3c2=O)cc1 [Compound 15]
pKi: 7.00
--
molecule: COc1ccc(C(C)=NNC(=O)CSc2nc3ccccc3c(=O)n2CCc2ccc(S(N)(=O)=O)cc2)cc1OC [Compound 19]
pKi: 6.72
--
molecule: COc1ccc(C=NNC(=O)CSc2nc3ccccc3c(=O)n2CCc2ccc(S(N)(=O)=O)cc2)cc1 [Compound 10]
pKi: 7.08

a = NS(=O)(=O)c1ccc(CCn2c(SCC(=O)NN=Cc3cccc(O)c3)nc3ccccc3c2=O)cc1 [Compound 6]
b = COc1ccc(C=NNC(=O)CSc2nc3ccccc3c(=O)n2CCc2ccc(S(N)(=O)=O)cc2)c(OC)c1 [Compound 11]
Input line: // which entry reports the smaller pKi, a or b ? Lab note: record the label of whichever item you select.
Output line: a
(a: 7.05, b: 7.29)

* * *

pKi: −log10 of the molar value.
# hCA IX (Homo sapiens): pKi values follow
valueKind: pKi

Answered cases to consult:
inputSmiles: COc1ccc(C=NNC(=O)CSc2nc3ccccc3c(=O)n2CCc2ccc(S(N)(=O)=O)cc2)cc1OC
pKi: 7.05
--
inputSmiles: COc1cc(C=NNC(=O)CSc2nc3ccccc3c(=O)n2CCc2ccc(S(N)(=O)=O)cc2)cc(OC)c1OC
pKi: 6.91
--
inputSmiles: COc1ccc(C(C)=NNC(=O)CSc2nc3ccccc3c(=O)n2CCc2ccc(S(N)(=O)=O)cc2)cc1OC
pKi: 7.39
--
inputSmiles: COc1cc(C=NNC(=O)CSc2nc3ccccc3c(=O)n2CCc2ccc(S(N)(=O)=O)cc2)ccc1O
pKi: 7.22
--
inputSmiles: NS(=O)(=O)c1ccc(CCn2c(SCC(=O)NN=Cc3cccc(O)c3)nc3ccccc3c2=O)cc1
pKi: 7.41

I = COc1ccc(C=NNC(=O)CSc2nc3ccccc3c(=O)n2CCc2ccc(S(N)(=O)=O)cc2)c(OC)c1
II = NS(=O)(=O)c1ccc(CCn2c(SCC(=O)NN=Cc3ccc4c(c3)OCO4)nc3ccccc3c2=O)cc1
III = COc1ccc(OC)c(C(C)=NNC(=O)CSc2nc3ccccc3c(=O)n2CCc2ccc(S(N)(=O)=O)cc2)c1
IV = COc1cc(C(C)=NNC(=O)CSc2nc3ccccc3c(=O)n2CCc2ccc(S(N)(=O)=O)cc2)cc(OC)c1OC
Input line: Please put the entries in order of rising pKi. The labels, placed in the requested order, form the answer.
Output line: IV, I, III, II
(IV: 6.73, I: 7.28, III: 7.53, II: 7.78)

* * *

biological target: hCA XII (Homo sapiens)
Sequence (O43570 25-354): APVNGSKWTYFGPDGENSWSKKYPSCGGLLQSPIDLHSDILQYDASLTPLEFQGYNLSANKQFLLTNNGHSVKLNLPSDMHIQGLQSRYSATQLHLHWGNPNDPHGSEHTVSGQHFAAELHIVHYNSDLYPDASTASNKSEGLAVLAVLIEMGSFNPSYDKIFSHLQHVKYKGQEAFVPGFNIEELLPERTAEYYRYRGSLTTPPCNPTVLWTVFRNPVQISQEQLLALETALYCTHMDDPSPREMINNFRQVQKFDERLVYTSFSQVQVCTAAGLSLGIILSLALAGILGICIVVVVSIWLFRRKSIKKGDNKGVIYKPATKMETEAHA
valueKind: Ki (nM)

1 = COc1cc(OC)cc(C(C)=NNC(=O)CSc2nc3ccccc3c(=O)n2CCc2ccc(S(N)(=O)=O)cc2)c1 [Compound 21]
2 = COc1cc(C=NNC(=O)CSc2nc3ccccc3c(=O)n2CCc2ccc(S(N)(=O)=O)cc2)cc(OC)c1OC [Compound 13]
3 = NS(=O)(=O)c1ccc(CCn2c(SCC(=O)NN=Cc3cccc(O)c3)nc3ccccc3c2=O)cc1 [Compound 6]
4 = COc1cc(C=NNC(=O)CSc2nc3ccccc3c(=O)n2CCc2ccc(S(N)(=O)=O)cc2)ccc1O [Compound 14]
Input line: Using measured Ki, arrange the compounds from above in descending sequence. A complete answer lists every label in the requested sequence.
Output line: 2, 1, 3, 4
(2: 91.5 nM, 1: 58 nM, 3: 34.7 nM, 4: 14.2 nM)

a = COc1ccc(OC)c(C(C)=NNC(=O)CSc2nc3ccccc3c(=O)n2CCc2ccc(S(N)(=O)=O)cc2)c1 [Compound 20]
b = NS(=O)(=O)c1ccc(CCn2c(SCC(=O)NN=Cc3ccc(O)cc3)nc3ccccc3c2=O)cc1 [Compound 7]
c = NS(=O)(=O)c1ccc(CCn2c(SCC(=O)NN=Cc3ccc4c(c3)OCO4)nc3ccccc3c2=O)cc1 [Compound 15]
Input line: Please list these compounds in decreasing order of Ki. Write out the labels following the order that was asked for.
Output line: a, c, b

I = COc1ccc(C=NNC(=O)CSc2nc3ccccc3c(=O)n2CCc2ccc(S(N)(=O)=O)cc2)c(OC)c1 [Compound 11]
II = COc1ccc(C=NNC(=O)CSc2nc3ccccc3c(=O)n2CCc2ccc(S(N)(=O)=O)cc2)cc1 [Compound 10]
Input line: Which has the smaller recorded Ki, I or II ? Respond with the label that goes with your answer.
Output line: II

* * *

biological target: hCA IX (Homo sapiens); assay: biochemical; conditions: SI, hCA IX over hCA II (ratio of Ki)
valueKind: Selectivity analysis hCA II/IX

A selection of reference data follows.
inputSmiles: NS(=O)(=O)c1ccc(CCn2c(SCC(=O)NN=Cc3ccc4c(c3)OCO4)nc3ccccc3c2=O)cc1
Selectivity analysis hCA II/IX: 6.10
--
inputSmiles: NS(=O)(=O)c1ccc(CCn2c(SCC(=O)NN=Cc3ccc(O)cc3)nc3ccccc3c2=O)cc1
Selectivity analysis hCA II/IX: 1.23
--
inputSmiles: NNC(=O)CSc1nc2ccccc2c(=O)n1CCc1ccc(S(N)(=O)=O)cc1
Selectivity analysis hCA II/IX: 0.31
--
inputSmiles: NS(=O)(=O)c1ccc(CCn2c(SCC(=O)NN=Cc3cccc(O)c3)nc3ccccc3c2=O)cc1
Selectivity analysis hCA II/IX: 2.31
--
inputSmiles: COc1ccc(C(C)=NNC(=O)CSc2nc3ccccc3c(=O)n2CCc2ccc(S(N)(=O)=O)cc2)cc1OC
Selectivity analysis hCA II/IX: 4.70

a = COc1cc(C(C)=NNC(=O)CSc2nc3ccccc3c(=O)n2CCc2ccc(S(N)(=O)=O)cc2)cc(OC)c1OC
b = COc1cc(C=NNC(=O)CSc2nc3ccccc3c(=O)n2CCc2ccc(S(N)(=O)=O)cc2)ccc1O
Input line: Smaller Selectivity analysis hCA II/IX value? Options are a and b Write the label of whichever entry you select.
Output line: b
(b: 0.50, a: 1.80)
